Molecular target: T1, sIL-6R (soluble IL-6 receptor; SBH Sciences) (human, UniProt P08887 20-365)
T1 construct: also called human IL-6R
T1 sequence: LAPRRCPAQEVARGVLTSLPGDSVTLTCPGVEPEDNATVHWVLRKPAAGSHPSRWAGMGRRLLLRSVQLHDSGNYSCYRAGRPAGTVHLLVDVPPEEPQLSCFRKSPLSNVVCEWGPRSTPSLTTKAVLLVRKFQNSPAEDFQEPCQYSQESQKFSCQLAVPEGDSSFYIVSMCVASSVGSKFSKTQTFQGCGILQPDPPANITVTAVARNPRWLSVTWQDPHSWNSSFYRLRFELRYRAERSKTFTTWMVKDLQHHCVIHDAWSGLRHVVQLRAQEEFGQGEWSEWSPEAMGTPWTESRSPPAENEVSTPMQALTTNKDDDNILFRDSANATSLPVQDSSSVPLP
Experiment: SPR (BIAcore 3000), antibody on chip, sIL-6R analyte, pH 6.0
Experimental endpoint: koff (s⁻¹)
One number for each entry, in s⁻¹.

• 237# (antibody, human IgG1, kappa, V domains shown, also called Sample # 237) VH: QVQLQESGPGLVRPSQTLSLTCTVSGYSITSDHAWSWVRQPPGRGLEWIGYISYSGMTTYNPSLKSRVTMLRDTSKNQFSLRLSSVTAADTAVYYCARCLARTTAMDYWGQGSLVTVSS VL: DIQMTQSPSSLSASVGDRVTITCRASQDISSYLNWYQQKPGKAPKLLIYYTSRLHSGVPSRFSGSGSGTDFTFTISSLQPEDIATYYCGQGNRLPYTFGQGTKVEIKR = 4.62e-05
• Tocilizumab (antibody, human IgG1, kappa, V domains shown, also called 25; 25(control)) VH: QVQLQESGPGLVRPSQTLSLTCTVSGYSITSDHAWSWVRQPPGRGLEWIGYISYSGITTYNPSLKSRVTMLRDTSKNQFSLRLSSVTAADTAVYYCARSLARTTAMDYWGQGSLVTVSS VL: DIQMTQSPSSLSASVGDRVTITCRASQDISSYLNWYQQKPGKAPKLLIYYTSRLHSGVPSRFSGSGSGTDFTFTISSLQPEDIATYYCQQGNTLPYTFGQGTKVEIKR = 0.000566

Quick check: koff of 209# (antibody, human IgG1, kappa, V domains shown, also called Sample # 209) VH: QVQLQESGPGLVRPSQTLSLTCTVSGYSITSDHAWSWVRQPPGRGLEWIGFISYSGMTTYNPSLKSRVTMLRDTSKNQFSLRLSSVTAADTAVYYCARSLARITAIDFWGQGSLVTVSS VL: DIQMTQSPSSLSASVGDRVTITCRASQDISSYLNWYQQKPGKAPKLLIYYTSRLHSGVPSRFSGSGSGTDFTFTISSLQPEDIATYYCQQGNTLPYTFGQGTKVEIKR ?
2.99e-05
